Please go through the items and note down their Nav1.7 (LBA).
# Tgt: hNav1.7 and the β1 subunit (Homo sapiens)
# Construct: expressed in transfected cells
# Sequence (Q15858 whole entry): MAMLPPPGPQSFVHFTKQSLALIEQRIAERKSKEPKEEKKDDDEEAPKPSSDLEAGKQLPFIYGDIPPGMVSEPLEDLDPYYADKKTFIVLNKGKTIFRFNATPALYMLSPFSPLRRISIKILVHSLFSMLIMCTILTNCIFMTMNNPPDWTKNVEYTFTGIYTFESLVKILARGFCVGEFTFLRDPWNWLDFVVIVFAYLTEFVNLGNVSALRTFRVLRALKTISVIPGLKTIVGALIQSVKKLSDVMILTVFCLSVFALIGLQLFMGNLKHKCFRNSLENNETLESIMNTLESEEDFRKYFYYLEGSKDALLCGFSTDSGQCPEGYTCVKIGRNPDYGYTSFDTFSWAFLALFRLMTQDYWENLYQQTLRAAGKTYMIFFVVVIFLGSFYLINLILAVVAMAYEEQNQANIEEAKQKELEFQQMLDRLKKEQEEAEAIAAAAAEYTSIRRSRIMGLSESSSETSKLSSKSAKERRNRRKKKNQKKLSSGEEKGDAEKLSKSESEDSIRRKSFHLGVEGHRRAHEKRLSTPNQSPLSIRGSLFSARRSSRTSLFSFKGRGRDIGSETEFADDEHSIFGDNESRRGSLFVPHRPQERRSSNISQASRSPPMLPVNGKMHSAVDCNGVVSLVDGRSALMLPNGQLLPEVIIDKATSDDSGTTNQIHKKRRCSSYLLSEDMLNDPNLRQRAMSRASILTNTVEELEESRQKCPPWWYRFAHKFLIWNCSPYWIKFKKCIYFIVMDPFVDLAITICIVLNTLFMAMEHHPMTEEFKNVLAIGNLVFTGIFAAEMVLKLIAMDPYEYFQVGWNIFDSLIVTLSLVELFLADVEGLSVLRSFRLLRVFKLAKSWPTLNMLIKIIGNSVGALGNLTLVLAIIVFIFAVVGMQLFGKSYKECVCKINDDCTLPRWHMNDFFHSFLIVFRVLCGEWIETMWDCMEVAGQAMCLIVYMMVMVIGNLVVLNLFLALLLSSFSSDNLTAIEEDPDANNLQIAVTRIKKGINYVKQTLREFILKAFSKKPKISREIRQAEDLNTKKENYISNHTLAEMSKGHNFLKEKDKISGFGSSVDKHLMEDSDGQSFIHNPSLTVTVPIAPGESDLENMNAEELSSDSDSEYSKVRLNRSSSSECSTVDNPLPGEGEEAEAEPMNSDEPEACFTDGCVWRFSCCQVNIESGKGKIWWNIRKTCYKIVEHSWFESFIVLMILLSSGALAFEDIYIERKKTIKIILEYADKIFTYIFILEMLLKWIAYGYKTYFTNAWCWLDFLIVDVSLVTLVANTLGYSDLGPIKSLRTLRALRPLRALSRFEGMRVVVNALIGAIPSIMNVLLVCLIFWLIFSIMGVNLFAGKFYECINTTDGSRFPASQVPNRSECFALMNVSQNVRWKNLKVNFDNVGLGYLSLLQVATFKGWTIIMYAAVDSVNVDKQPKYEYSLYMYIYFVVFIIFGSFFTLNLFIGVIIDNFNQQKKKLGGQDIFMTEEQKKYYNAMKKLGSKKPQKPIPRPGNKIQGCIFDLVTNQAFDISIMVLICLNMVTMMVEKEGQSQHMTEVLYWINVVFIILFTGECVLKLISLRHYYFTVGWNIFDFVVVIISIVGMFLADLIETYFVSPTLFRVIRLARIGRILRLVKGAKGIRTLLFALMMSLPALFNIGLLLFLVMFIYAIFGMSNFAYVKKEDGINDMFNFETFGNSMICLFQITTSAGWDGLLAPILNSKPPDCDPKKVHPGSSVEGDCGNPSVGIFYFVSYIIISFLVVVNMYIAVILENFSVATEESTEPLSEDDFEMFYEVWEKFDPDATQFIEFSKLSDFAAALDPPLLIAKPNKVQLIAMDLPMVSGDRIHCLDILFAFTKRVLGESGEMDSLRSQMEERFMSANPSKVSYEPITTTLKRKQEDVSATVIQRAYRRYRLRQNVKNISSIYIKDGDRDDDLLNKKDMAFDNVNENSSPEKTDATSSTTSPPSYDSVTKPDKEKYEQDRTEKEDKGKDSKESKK
# Sequence (Q07699 19-218 partner): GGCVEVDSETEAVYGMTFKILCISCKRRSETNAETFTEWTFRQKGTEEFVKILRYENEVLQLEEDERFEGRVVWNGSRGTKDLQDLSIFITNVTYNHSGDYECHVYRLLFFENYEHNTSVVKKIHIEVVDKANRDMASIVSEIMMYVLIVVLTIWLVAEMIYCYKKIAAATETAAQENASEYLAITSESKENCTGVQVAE
# Assay: Tritiated compound competitive binding to membranes from cells heterologously expressing hNav1.7 and the β1 subunit (LBA)
# Applied conditions: competition with 100 pM [3H]compound, 18 h, room temperature; IC50 by 4 parameter logistic model
Numbers only, in µM.

INSERT INTO measurements (molecule, unit_string, observed_result) VALUES
  ('CC(C)(O)[C@H]1CCN([C@H]2CCOc3cc(S(=O)(=O)Nc4ncns4)ccc32)[C@@H](c2ccc(F)cc2)C1 (single isomer, unassigned) [Example 136]', 'µM', 0.0194),
  ('O=S(=O)(Nc1ncns1)c1ccc2c(c1)OCC[C@@H]2N1CCCC[C@@H]1C1CCCCC1 (single isomer, unassigned) [Example 156]', 'µM', 0.907),
  ('O=S(=O)(Nc1ncns1)c1ccc2c(c1)OCC[C@H]2N1CCN(CC(F)(F)F)C[C@H]1c1ccc(F)cc1 [Example 220]', 'µM', 0.0494),
  ('O=S(=O)(Nc1ncns1)c1ccc(CN2CCCC[C@H]2c2ccccc2)c(Cl)c1 [Example 65]', 'µM', 5.51),
  ('O=S(=O)(Nc1ncns1)c1ccc2c(c1)OCC[C@@H]2N1CCCC[C@@H]1c1ccc(F)cc1 (single isomer, unassigned) [Example 78]', 'µM', 0.679);

Hello, I would appreciate it if you could give Nav1.7 (LBA) for each entry below.
1. O=S(=O)(Nc1ncns1)c1cc(F)c(CN2CC[C@H](OC(F)(F)F)C[C@@H]2c2ccccc2)cc1F [Example 112]
2. O=S(=O)(Nc1ncns1)c1ccc2c(c1)OCC[C@@H]2N1CC[C@H](CF)C[C@@H]1c1ccc(F)cc1 [Example 183]
3. O=S(=O)(Nc1ncns1)c1cc2c(cc1F)[C@@H](N1CCCC[C@@H]1c1ccc(F)cc1)CCO2 (racemic) [Example 86]
4. O=S(=O)(Nc1ncns1)c1ccc2c(c1)OCC[C@H]2N1CCC(F)(F)C[C@H]1c1ccc(F)cc1 (single isomer, unassigned) [Example 133]
5. O=S(=O)(Nc1ncns1)c1ccc(CN2CCC[C@@H]2c2ccccc2)c(Cl)c1 [Example 49]
6. CN(Cc1ccccc1)[C@H]1CCOc2cc(S(=O)(=O)Nc3ncns3)ccc21 [Example 120]
7. O=S(=O)(Nc1ncns1)c1ccc2c(c1)OCC[C@H]2N1CC[C@](O)(C(F)(F)F)C[C@@H]1c1ccc(F)cc1 [Example 170]
8. O=S(=O)(Nc1ncns1)c1ccc2c(c1)OCC[C@@H]2NC(CCC(F)(F)F)c1ccccc1 (some centres unmarked) [Example 207]

Reply:
1. 4.21
2. 0.00652
3. 0.00496
4. 0.0467
5. 6.81
6. 0.376
7. 0.175
8. 0.039

----------
# Tgt: hNav1.7 and the β1 subunit (Homo sapiens)
# Construct: expressed in transfected cells
# Assay: Tritiated compound competitive binding to membranes from cells heterologously expressing hNav1.7 and the β1 subunit (LBA)
# Applied conditions: competition with 100 pM [3H]compound, 18 h, room temperature; IC50 by 4 parameter logistic model
Nav1.7 (LBA) below 0.02 µM gives 0.0; Nav1.7 (LBA) at or above it gives 1.0.

Worked examples follow.
INSERT INTO assay_data (compound, class_name) VALUES
  ('O=S(=O)(Nc1ncns1)c1ccc(CN2CCCC[C@@H]2c2ccccc2)c(Cl)c1', 1.0),
  ('O=S(=O)(Nc1ncns1)c1ccc2c(c1)OCC[C@@H]2N1CCN(CC(F)(F)F)C[C@H]1c1ccc(F)cc1', 0.0),
  ('O=S(=O)(Nc1ncns1)c1cc(F)c(CN2CC[C@@H](F)C[C@H]2c2ccccc2)cc1F (single isomer, unassigned)', 1.0),
  ('Cn1nccc1[C@H]1C[C@@H](C(F)(F)F)CCN1[C@H]1CCOc2cc(S(=O)(=O)Nc3ncns3)ccc21 (single isomer, unassigned)', 0.0),
  ('CC(C)(C)OC(=O)N1CCN([C@@H]2CCOc3cc(S(=O)(=O)Nc4ncns4)ccc32)[C@H](c2ccc(F)cc2)C1', 1.0);

Let's switch to this compound now.
Ask: Does Nav1.7 (LBA) meet or surpass 0.02 µM for CS(=O)(=O)[C@H]1CCN([C@H]2CCOc3cc(S(=O)(=O)Nc4ncns4)ccc32)[C@@H](c2ccc(F)cc2)C1 ?
Reply: 1.0
